System: SK-MEL-2 melanoma
Procedure text: NCI-60 one-dose screen, 48 h (100 = growth as untreated, 0 = no growth, -100 = all killed)
Run parameters: 10 µM unless noted
Compounds without any hit were thinned out: in the full panel of roughly 83,000, 20% have a hit.
Please note: growth exactly at 90% is rule not met. Only values below 90% get rule met.

In: Below 90% on growth? Entry `CCOC(=O)c1c(C)oc2ncnc(Nc3ccc(NC(=O)Nc4cccc(Cl)c4)cc3)c12`
Out: rule met

In: Threshold test, growth < 90%: `c1cc[c]([Bi]([c]2ccccc2)[c]2ccccc2)cc1`
Out: rule not met

In: Please state whether growth is below 90% for CC(=O)N1N=C(c2ccc(Cl)cc2)CC1c1cn(-c2ccccc2)nc1-c1ccc([N+](=O)[O-])cc1 (stereo not given)
Out: rule not met

In: I wonder whether `Nc1cc2c(cc1Br)[nH]c(=O)c1ccccc12` has growth below 90%. Can you tell?
Out: rule met

----------
System: ACHN renal
Procedure text: NCI-60 one-dose screen, 48 h
Run parameters: 10 µM unless noted
This is part of a sample that, as a whole, favours compounds with a hit. Of some 83,000 tested, about 20% had one in any assay. Active and inactive are the calls of the source. How the source made its calls: active means growth percent below 10; inactive means the rest.
Answer with one of the outcomes active, inactive

In: // return assay outcome for `CCc1ccc(C(=Nc2ccc(N(C)C(=O)CN3CCN(C)CC3)cc2)c2c(O)[nH]c3ccc(C(=O)OC)cc23)cc1`
Out: active

In: Tell me the assay call for `COc1ccc(C(=O)CN2C(=O)NC(c3ccccc3)(c3ccccc3)C2=O)cc1` please.
Out: inactive

In: Look up the recorded call for `CCCC[N+](C)(N)CCCC` in this test.
Out: inactive

In: What did this assay record as the result for `O=C(c1ccccc1)c1ccccc1-c1ccccc1` ?
Out: inactive

In: Which outcome did this test record for the compound `C=C(C)[C@@H]1CC[C@]2(COC(=O)c3ccccc3C(=O)O)CC[C@]3(C)[C@H](CC[C@@H]4[C@@]5(C)CCCNC(C)(C)[C@@H]5CC[C@]43C)[C@@H]12` ?
Out: inactive

In: What classification did `Cc1cc2c(-c3nc4ccccc4[nH]3)c(O)c(O)cc2c(O)c1-c1c(C)cc2c(-c3nc4ccccc4[nH]3)c(O)c(O)cc2c1O` end up with in this test?
Out: active

In: // return assay outcome for `COc1cc(-c2nn(-c3ccc(NC(=O)c4ccc(Cl)c(C(F)(F)F)c4)cc3)cc2-c2ccncc2)ccc1Cl`
Out: inactive

In: Per the assay record, what outcome was assigned to `CC1(C)NC(=S)NC1=O` ?
Out: inactive

In: Outcome logged for `N=C(N)N=Nc1ccc(NN=C(N)N)cc1` in this assay:
Out: inactive

In: What outcome does the record of this test show for `Cc1c(C(N)=O)sc2c1c(=O)n(Cc1ccccc1)c1nnc(S(C)(=O)=O)n21` ?
Out: inactive

In: Any idea what this test logged for `C[C@@H](c1ccc2c(c1)[nH]c1ccc(Cl)cc12)c1nc2ccc(Cl)cc2[nH]1` ?
Out: inactive

In: Could you check what this test reported for `COc1cc2cn3c4ccc(O)cc4[nH]c(=O)c3c2cc1OC` ?
Out: active

----------
Tested on: NCI/ADR-RES ovarian
Procedure text: NCI-60 one-dose screen, 48 h
Run parameters: 10 µM unless noted
The panel holds about 83,000 compounds, 20% with a hit somewhere; the sample as a whole holds those more often. Activity calls are given as the source filed them. How the source made its calls: active means growth percent below 10; inactive means the rest.
Thanks in advance; please answer with one of these: active, inactive

In: Outcome logged for `O=C(N/N=C/c1ccccc1Cl)c1cccc2ccccc12` in this assay:
Out: inactive

In: Fill in: this test's call for `CC[N+](C)(C)N` is ___
Out: inactive

In: Tell me the assay call for `CCCC(=O)Nc1ccccc1C(=O)O` please.
Out: inactive

In: Hello, I am checking results. What call was entered for COc1ccc2cc(C(C)C(=O)Nc3ccc(S(=O)(=O)Nc4cc(C)on4)cc3)ccc2c1 (centres undefined) ?
Out: inactive

In: For `CC1(C)Oc2cc3oc(=O)ccc3cc2C[C@@H]1OCCOS(=O)(=O)c1ccc(C#N)cc1` , what call appears in the results of this test?
Out: inactive

In: Hello, I am checking results. What call was entered for CC(O)CN(CCO)CCN(CCO)CC(C)O (centres undefined) ?
Out: inactive

In: Query: recorded result category for `Cc1nc2c(nnn2-c2ccccc2)c2nc(-c3ccc(Cl)cc3)oc(=O)c12` in this test
Out: inactive

In: Short answer needed: outcome of this test for `CC(C)C(=O)c1ccc(Cl)s1` ?
Out: inactive

In: GET /call?item= `Cc1ccc(S(=O)(=O)Nc2cccc(Cn3c(=O)[nH]c4ccc(Oc5ncccn5)cc4c3=O)c2)cc1` returns the recorded outcome of this test.
Out: inactive

In: Recorded test outcome, item `C/C(CCC(=O)O)=N/Nc1ccc([N+](=O)[O-])cc1`
Out: inactive

In: Hi, do you know how `CCCCN(CCCC)CCCNc1c2c(nc3ccc(Cl)cc13)CCCC2` came out in this test?
Out: inactive

In: Test call for this compound, please: `NCCCOc1cc(Cl)ccc1NC(=O)c1cc2ccccc2cc1OCCCN`
Out: inactive

In: # fetch the recorded call for `CCCCCCCCCCCCCCCC[n+]1cccc(C#N)c1` here
Out: inactive

In: Test call for this compound, please: `CCCNC(=O)Oc1ccc(/C(=C(/C)Cc2ccc(OC)cc2)c2ccc(OCCN3CCCCC3)cc2)cc1`
Out: inactive

In: Field: outcome | Entry: `O=C(/C(Br)=C/c1ccccc1)c1ccccc1`
Out: active

In: Tell me the assay call for O=C1CSC(c2ccccc2Cl)N1c1nnc(-c2ccncc2)o1 (centres undefined) please.
Out: inactive

In: // return assay outcome for `COc1cc(-c2nn(-c3ccc(NC(=O)Nc4cc(C(F)(F)F)cc(C(F)(F)F)c4)cc3)cc2-c2ccncc2)ccc1Cl`
Out: active

In: What did this assay record as the result for `CCOC(=O)CSSCC(=O)OCC` ?
Out: inactive

In: Record lookup: outcome of this test for `CC(C)OC(=O)c1ccc2n1CCCc1cnc(Nc3ccccc3)nc1-2` ?
Out: inactive

In: What is the recorded call for this compound in the test? COc1cccc(CNC(=O)c2cccc(C3CC(=O)c4c(cc(OC)c(OC)c4OC)O3)c2)c1 (centres undefined)
Out: inactive

In: Just curious, what result did CCOC(=O)C1=C(C(F)(F)F)NC(=S)NC1CN1C(=O)c2ccccc2C1=O (centres undefined) get here?
Out: inactive

In: Identify the outcome logged in this assay for the compound shown: `CC(=O)N(N=O)c1ccc([N+](=O)[O-])cc1Cl`
Out: inactive

In: Field: outcome | Entry: `COc1ccc(OC)c(Cn2cc3c(c2-c2ccccc2)CCc2cnoc2-3)c1`
Out: inactive

In: In this assay, the call recorded for `O=C1c2ccccc2CCc2ccccc21` was what?
Out: inactive

In: What classification did `COc1cc(OC)c2c(=O)cc(-c3ccccc3)oc2c1` end up with in this test?
Out: inactive

In: Assay result, entry `COc1ccc2cn3c4ccc(O)cc4[nH]c(=O)c3c2c1` — outcome?
Out: active

In: Could you kindly confirm the outcome this assay logged for `CCCCCCCCc1ccc(CCC(N)(CO)CO)cc1` ?
Out: active

In: Which outcome was assigned to `Cc1sc(NC(=O)c2ccc(C(C)(C)C)cc2)c(C(=O)O)c1C` in this test?
Out: inactive

In: What is the recorded call for this compound in the test? `COc1ccccc1C(=O)Nc1cccc(-c2cc(=O)c3c(OC)c(OC)c(OC)cc3o2)c1`
Out: inactive

In: Would you mind telling me which call this test gave COC(=O)/C=C1/CCCCC1(C)C(=O)OC (centres undefined) ?
Out: inactive

In: What did the test return for `O=C1N/C(=N\c2nnc(-c3ccc(O)cc3)s2)S/C1=C\c1ccccc1O` ?
Out: inactive

In: Query: recorded result category for `C=CN(C)S(C)(=O)=O` in this test
Out: inactive

In: Test call, this compound: `COc1ccc(Nc2c3ccccc3nc3ccccc23)cc1`
Out: inactive

In: Please let me know the test result on file for `COc1ccc(-c2nc(N)n(C(=S)Nc3ccccc3)n2)cc1` .
Out: inactive

In: Look up the recorded call for `C=CCSc1nnc(COc2ccc3c(C)c(Cc4ccccc4)c(=O)oc3c2C)o1` in this test.
Out: inactive

In: Could you kindly confirm the outcome this assay logged for `[N-]=[N+]=Nc1ncc(-c2ccc(C(F)(F)F)cc2)c(NC2CCCCCC2)n1` ?
Out: inactive

In: Returns: the outcome recorded for `O=S(=O)(O)CCI` in this assay.
Out: inactive

In: Test call for this compound, please: COC(=O)C(C(=O)OC)C(Br)C(Br)C(Br)c1ccccc1 (centres undefined)
Out: inactive

In: // return assay outcome for COc1cc(NC(C)CCCN)c2nccc(C)c2c1OC (centres undefined)
Out: inactive

In: What did the test return for `O=C(Nc1ccc(-n2cc(-c3ccncc3)c(-c3ccc(Cl)c(O)c3)n2)cc1)Nc1ccc(Cl)c(C(F)(F)F)c1` ?
Out: active

In: What did the test return for `CCCCCCCCCCCCOC(=N)N(C)C` ?
Out: inactive

In: I would be grateful if you could indicate the recorded call for `O=C(Nc1ccc(Cl)cn1)C1(c2ccccc2)CCCCC1` .
Out: inactive

In: Status in this test for Cc1ccc(S(=O)(=O)NC(CCC(=O)Nc2ccccc2)C(=O)Nc2ccccc2)cc1 (centres undefined) ?
Out: active

In: Any idea what this test logged for `CC[C@H](Nc1ncnc2nc[nH]c12)c1nc2cccc(NCc3ccc(C(=O)NO)nc3)c2c(=O)n1-c1ccccc1` ?
Out: inactive
